Recorded values, source paper PMC8713164.

Target: TNKS2 (Homo sapiens, UniProt Q9H2K2)
Construct: TNKS2 (residues 873–1162); made in house
Sequence (Q9H2K2 873-1162): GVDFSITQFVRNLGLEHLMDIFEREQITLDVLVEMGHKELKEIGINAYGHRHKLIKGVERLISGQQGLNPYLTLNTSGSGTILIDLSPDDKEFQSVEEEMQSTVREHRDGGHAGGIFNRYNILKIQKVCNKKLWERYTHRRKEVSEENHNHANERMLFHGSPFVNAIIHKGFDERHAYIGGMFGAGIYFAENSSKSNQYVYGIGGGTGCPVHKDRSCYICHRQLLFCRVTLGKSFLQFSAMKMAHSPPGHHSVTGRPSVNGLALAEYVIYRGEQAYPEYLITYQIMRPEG
Test: TNKS2 biochemical assay (unreacted NAD+ fluorescence)
Conditions: TNKS2 5 nM, 500 nM NAD+, 20 h; quadruplicates; 95% confidence intervals in parentheses; 24: averages of multiple independent measurements; read-out: IC50 TNKS2
Experimental: New compounds were prepared in half-log dilution series, and the reactions were carried out in quadruplicates with protein and compound controls to exclude the effect of compound autofluorescence. All reactions were performed at ambient temperature. TNKS1 (20 nM) or TNKS2 (5 nM) was incubated for 20 h in assay buffer (50 mM Bis-Tris propane (BTP), pH 7.0, 0.5 mM Tris(2-carboxyethyl)phosphine (TCEP), 0.01% Triton X-100) with compound and 10 μM or 500 nM NAD^+, respectively.
MEASUREMENT_KIND: IC50 (nM)
Numbers only, in nM.

CCOc1ccc(-c2nnc([C@H]3C[C@H](NC(=O)c4ccnc5cccnc45)C3)n2-c2ccccn2)nc1 [Compound 16a] :: 5.8
CC(C)Oc1ccc(-c2nnc([C@H]3C[C@H](NC(=O)c4ccccn4)C3)n2-c2ccccc2F)nc1 :: 12
CCOc1ccc(-c2nnc([C@H]3C[C@H](NC(=O)c4ccccn4)C3)n2-c2ccccc2)nc1 :: 5.2

input: Would you kindly share the measured IC50 for CCOc1ccc(-c2nnc([C@H]3C[C@H](NC(=O)c4ccnc5cc(F)cnc45)C3)n2-c2ccc(C)s2)nc1 [Compound 22b] ?
output: 1.6
